- Target entity: 5-HT1A receptor (Rattus norvegicus, UniProt P19327)
- Sequence (P19327 whole entry): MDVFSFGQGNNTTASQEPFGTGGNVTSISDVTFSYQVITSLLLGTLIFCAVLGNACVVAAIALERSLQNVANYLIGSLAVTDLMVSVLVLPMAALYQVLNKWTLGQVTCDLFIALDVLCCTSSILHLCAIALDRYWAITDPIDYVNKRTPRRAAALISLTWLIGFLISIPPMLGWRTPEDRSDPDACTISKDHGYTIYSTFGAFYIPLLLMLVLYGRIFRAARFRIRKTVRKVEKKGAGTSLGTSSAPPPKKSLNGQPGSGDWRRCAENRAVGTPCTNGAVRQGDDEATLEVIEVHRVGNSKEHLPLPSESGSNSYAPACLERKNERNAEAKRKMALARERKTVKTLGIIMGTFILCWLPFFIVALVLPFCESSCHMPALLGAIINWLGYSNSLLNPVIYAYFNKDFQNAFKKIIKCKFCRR
- Protocol details: biochemical
- Format: binding
- Parameters: 47: 529-540 (1986); from tissue; host or cells: brain tissue, inferred from the cited method (rat frontal cortex)
- Test parameters: Table 5; read-out: 5-HT1A IC50
- Protocol: Further sigma receptor binding assays against [^3 H]DTG and 5HT-1A binding assays were conducted according to the procedure outlined in the previous examples.
pIC50: −log10 of the molar value.
# if value of pIC50 reaches 7, tag yes; if it stays below, tag no

Item c1ccc(CCCN2CCN(c3ccccc3)CC2)cc1 with pIC50 of 7 or above?
yes

Item C[C@@H](N)Cc1ccc(I)cc1 with pIC50 of 7 or above?
no

Item CN[C@H](C)Cc1ccccc1 with pIC50 of 7 or above?
no

Hey, just so you know, these numbers are from patent US6057371A.
